# pIC50 listing for each entry below
# TESTED_TARGET: KAT-5 (Homo sapiens (Human), UniProt Q92993)
# Sequence (Q92993 other isoform, or with tags, fused parts or gaps): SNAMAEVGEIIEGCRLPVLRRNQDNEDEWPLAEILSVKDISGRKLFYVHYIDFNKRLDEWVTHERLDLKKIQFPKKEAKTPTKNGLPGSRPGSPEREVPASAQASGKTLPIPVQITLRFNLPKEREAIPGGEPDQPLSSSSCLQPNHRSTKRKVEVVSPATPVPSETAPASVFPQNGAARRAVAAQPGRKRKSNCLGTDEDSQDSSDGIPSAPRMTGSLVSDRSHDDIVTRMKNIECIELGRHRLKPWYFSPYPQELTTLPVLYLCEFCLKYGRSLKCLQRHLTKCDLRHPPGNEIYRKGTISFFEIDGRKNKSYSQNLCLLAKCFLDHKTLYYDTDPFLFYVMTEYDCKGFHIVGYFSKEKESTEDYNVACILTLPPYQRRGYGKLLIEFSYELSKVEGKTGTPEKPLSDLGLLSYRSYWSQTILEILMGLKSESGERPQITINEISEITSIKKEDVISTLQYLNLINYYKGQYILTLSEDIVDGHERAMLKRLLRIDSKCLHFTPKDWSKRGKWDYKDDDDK
# TEST_METHOD_NOTES: KAT-5 biochemical inhibition assay (SAMDI mass spectrometry)
pIC50: −log10 of the molar value.

Check out these entries, answers already filled in.
Bench note: what pIC50 did Cn1cnc(-c2cc(Cl)c(F)c(C(=O)NNS(=O)(=O)c3cccc(F)c3)c2)c1 [Compound I-320] show?
> 5.00

Please give the result for Cn1cnc(-c2cc(F)c(F)c(C(=O)NNS(=O)(=O)CC3CCOCC3)c2)c1 [Compound I-150] too.
4.30 to 5.00

Please give the result for COCC(=O)N1CCC(CS(=O)(=O)NNC(=O)c2cc(-c3cn(C)cn3)cc(Cl)c2F)C1 (stereo not shown) [Compound I-62] too.
4.30 to 5.00

***
Bench note: what pIC50 did COCCOc1ccc(S(=O)(=O)NNC(=O)c2cc(-c3cn(C)cn3)cc(Cl)c2F)cc1 [Compound I-369] show?
> 5.00

Please give the result for COc1ccc(CNC(=O)N2CC(CS(=O)(=O)NNC(=O)c3cc(-c4cn(C)cn4)cc(Cl)c3F)C2)cc1 [Compound I-203] too.
> 5.00

Please give the result for CC(C)C(=O)N[C@H]1CC[C@H](CS(=O)(=O)NNC(=O)c2cc(-c3cn(C)cn3)cc(Cl)c2F)CC1 [Compound I-201] too.
> 5.00

Please give the result for Cn1cnc(-c2cc(Cl)c(F)c(C(=O)NNS(=O)(=O)C[C@H]3CC[C@H](NC(=O)Cc4ccccc4)CC3)c2)c1 [Compound I-229] too.
> 5.00
